Target: APE1 (Homo sapiens)
Sequence (P27695 whole entry, species assumed): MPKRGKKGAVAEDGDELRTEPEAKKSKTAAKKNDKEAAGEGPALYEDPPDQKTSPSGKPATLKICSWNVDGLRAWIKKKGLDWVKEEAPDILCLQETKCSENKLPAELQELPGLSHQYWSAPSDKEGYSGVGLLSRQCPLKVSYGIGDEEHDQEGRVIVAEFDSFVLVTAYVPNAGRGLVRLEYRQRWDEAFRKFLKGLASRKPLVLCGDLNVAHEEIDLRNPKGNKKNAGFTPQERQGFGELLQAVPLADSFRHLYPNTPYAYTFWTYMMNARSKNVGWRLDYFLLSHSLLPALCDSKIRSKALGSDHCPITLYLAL
measureName: pIC50
Give only the number. pIC50 is defined as minus log10 of concentration in molar units.

Problem: Which pIC50 is listed for CCC/C(=C\C1=C(OC)C(=O)c2ccccc2C1=O)C(=O)N(CC)CC ?
Solution: 6.00

Problem: And what about the compound CCC/C(=C\C1=C(OC)C(=O)c2ccccc2C1=O)C(=O)N(C)C ?
Solution: 5.70

Problem: Here is the next compound: COC1=C(/C=C(\C)C(=O)N(C)C)C(=O)c2ccccc2C1=O
Solution: 6.00

* * *

Test: Pharmacokinetics (PK)
Conditions: in vivo
Procedure: PK studies were performed in the IU Simon Cancer Center Clinical Pharmacology Analytical Core (CPAC), as previously described for E3330 (Fishel et al., 2011) and standards for the compounds used. P450 metabolism studies using human microsomes were also performed in CPAC directed by Dr. David Jones.
measureName: half-life (h)
The reply should be a number in h, with the unit left off.

Problem: Query (compound): CCCCCCCCC/C(=C\C1=C(C)C(=O)C(OC)=C(OC)C1=O)C(=O)O ; field requested: half-life
Solution: 3.6

Problem: Try CCC/C(=C\C1=C(OC)C(=O)c2ccccc2C1=O)C(=O)N(CC)CC next.
Solution: 25.8

* * *

Tested on: sensory neuronal cultures
Assay: Neuronal cell viability (trypan blue exclusion)
Format: cell-based
Settings: 20 μM for 48 hours prior to and throughout the cisplatin treatment (24 hours)
measureName: effect on cisplatin-induced cell death

| compoundStructure | dataValue |
| --- | --- |
| CCC/C(=C\C1=C(OC)C(=O)c2ccccc2C1=O)C(=O)N(CC)CC | blocked |
| CCCCCCCCC/C(=C\C1=C(C)C(=O)C(OC)=C(OC)C1=O)C(=O)O | blocked |
